# measurement-notes: Stability Test 2: 2% aqueous solution, pH7, 50° C., 4 weeks (residual rate, odor, coloration)
# Assay type: physicochemical
# test-conditions: storage period 0
recorded-metric: Residual rate

INSERT INTO results (compound, recorded_metric, result) VALUES
  ('CCCCCCCCOC1=C(OCC(O)CO)[C@@H]([C@@H](O)CO)OC1=O (some centres unmarked)', 'Residual rate', '⊚ (⊚: 90% or more)'),
  ('O=C1O[C@H]([C@@H](O)CO)C(OCC(O)CO)=C1OCC(O)CO (some centres unmarked)', 'Residual rate', '⊚ (⊚: 90% or more)'),
  ('O=C1O[C@H]([C@@H](O)CO)C(O)=C1OCC(O)CO (some centres unmarked)', 'Residual rate', '⊚ (⊚: 90% or more)');

---

# measurement-notes: Stability Test 1: 2% aqueous solution, pH7, room temperature, 4 weeks (residual rate, odor, coloration)
# Type: physicochemical
# test-conditions: storage period 4 weeks
recorded-metric: Residual rate

INSERT INTO measurements (molecule, recorded_metric, result) VALUES
  ('O=C1O[C@H]([C@@H](O)CO)C(OCC(O)CO)=C1OCC(O)CO (stereo partly drawn)', 'Residual rate', '⊚ (⊚: 90% or more)'),
  ('O=C1O[C@H]([C@@H](O)CO)C(O)=C1OCC(O)CO (stereo partly drawn)', 'Residual rate', '⊚ (⊚: 90% or more)'),
  ('CCCCCCCCOC1=C(OCC(O)CO)[C@@H]([C@@H](O)CO)OC1=O (stereo partly drawn)', 'Residual rate', '⊚ (⊚: 90% or more)');

---

# measurement-notes: Stability Test 1: 2% aqueous solution, pH7, room temperature, 4 weeks (residual rate, odor, coloration)
# Type: physicochemical
# test-conditions: storage period 2 weeks
recorded-metric: Residual rate

INSERT INTO measurements (molecule, recorded_metric, result) VALUES
  ('CCCCCCCCOC1=C(OCC(O)CO)[C@@H]([C@@H](O)CO)OC1=O (stereo partly drawn)', 'Residual rate', '⊚ (⊚: 90% or more)'),
  ('O=C1O[C@H]([C@@H](O)CO)C(OCC(O)CO)=C1OCC(O)CO (stereo partly drawn)', 'Residual rate', '⊚ (⊚: 90% or more)'),
  ('O=C1O[C@H]([C@@H](O)CO)C(O)=C1OCC(O)CO (stereo partly drawn)', 'Residual rate', '⊚ (⊚: 90% or more)');

---

# measurement-notes: Stability Test 2: 2% aqueous solution, pH7, 50° C., 4 weeks (residual rate, odor, coloration)
# Format: physicochemical
# test-conditions: storage period 4 weeks
recorded-metric: Residual rate

INSERT INTO measurements (molecule, result) VALUES
  ('CCCCCCCCOC1=C(OCC(O)CO)[C@@H]([C@@H](O)CO)OC1=O (some centres unmarked)', '⊚ (⊚: 90% or more)'),
  ('O=C1O[C@H]([C@@H](O)CO)C(OCC(O)CO)=C1OCC(O)CO (some centres unmarked)', '⊚ (⊚: 90% or more)'),
  ('O=C1O[C@H]([C@@H](O)CO)C(O)=C1OCC(O)CO (some centres unmarked)', '⊚ (⊚: 90% or more)');

---

# measurement-notes: Stability Test 2: 2% aqueous solution, pH7, 50° C., 4 weeks (residual rate, odor, coloration)
# Format: physicochemical
# test-conditions: storage period 2 weeks
recorded-metric: Residual rate

INSERT INTO assay_data (compound, recorded_metric, result) VALUES
  ('O=C1O[C@H]([C@@H](O)CO)C(O)=C1OCC(O)CO (some centres unmarked)', 'Residual rate', '⊚ (⊚: 90% or more)'),
  ('O=C1O[C@H]([C@@H](O)CO)C(OCC(O)CO)=C1OCC(O)CO (some centres unmarked)', 'Residual rate', '⊚ (⊚: 90% or more)'),
  ('CCCCCCCCOC1=C(OCC(O)CO)[C@@H]([C@@H](O)CO)OC1=O (some centres unmarked)', 'Residual rate', '⊚ (⊚: 90% or more)');

# credit: patent US8163939B2
